TEST_TARGET: Solute carrier family 2, facilitated glucose transporter member 1 (Homo sapiens) (UniProt P11166)
Sequence (P11166 whole entry): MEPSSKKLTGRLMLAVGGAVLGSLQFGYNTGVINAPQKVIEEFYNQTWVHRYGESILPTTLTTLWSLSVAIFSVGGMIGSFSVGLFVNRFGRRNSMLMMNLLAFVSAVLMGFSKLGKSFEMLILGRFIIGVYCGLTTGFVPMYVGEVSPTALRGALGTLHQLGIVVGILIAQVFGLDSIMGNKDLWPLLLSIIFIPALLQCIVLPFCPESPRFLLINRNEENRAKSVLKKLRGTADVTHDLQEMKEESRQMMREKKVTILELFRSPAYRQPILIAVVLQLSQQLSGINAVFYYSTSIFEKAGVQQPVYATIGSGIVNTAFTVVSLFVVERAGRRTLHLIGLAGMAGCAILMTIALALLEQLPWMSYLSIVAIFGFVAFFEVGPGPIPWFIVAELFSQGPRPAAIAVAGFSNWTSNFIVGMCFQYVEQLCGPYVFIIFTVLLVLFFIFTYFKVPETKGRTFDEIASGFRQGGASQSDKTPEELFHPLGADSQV
ASSAY_TEXT: ST_JUDE_LEISH: Cytotoxicity at 2uM final concentration against transgenic Leishmania Mexicana promastigotes LmGLUT1 that are glucose transport deficient and complemented with the human glucose transporter GLUT1. Activity is measured by DNA content using SYBR green in vitro
Assay type: functional
MEASUREMENT_NAME: inhibition (%)
Respond with the bare value in %.

A selection of reference data follows.
>  <COMPOUND_STRUCTURE_STRING>
COc1cc(C=CC(=O)N2CCC(CN3CCC(c4c[nH]c5ccccc45)CC3)CC2)ccc1O

>  <MEASURED_RESULT>
8.46

$$$$
>  <COMPOUND_STRUCTURE_STRING>
Cc1[nH]c2ccc(O)cc2c1C1CCN(CC2CCN(C(=O)/C=C/c3ccc(Cl)c(Cl)c3)CC2)CC1

>  <MEASURED_RESULT>
0.92

$$$$
>  <COMPOUND_STRUCTURE_STRING>
COc1ccc(CCNCc2ccc3c(C)cc(N)nc3c2)cc1

>  <MEASURED_RESULT>
0.82

$$$$
>  <COMPOUND_STRUCTURE_STRING>
CC[C@H]1CN2CC[C@H]1C[C@H]2[C@H](O)c1cc(-c2cccc(Cl)c2)nc2ccc(OC)cc12

>  <MEASURED_RESULT>
9.7

$$$$

Proceeding to the next compound to report its inhibition.
Req: Please report the recorded inhibition for CN(c1cc(NC(=O)c2ccc(F)cc2)ccn1)C1CCN(Cc2ccc(C#N)cc2)CC1 .
Resp: 2.42

---

Item-by-item account of inhibition
TEST_TARGET: Solute carrier family 2, facilitated glucose transporter member 1 (Homo sapiens) (UniProt P11166)
ASSAY_TEXT: ST_JUDE_LEISH: Cytotoxicity at 2uM final concentration against transgenic Leishmania Mexicana promastigotes LmGLUT1 that are glucose transport deficient and complemented with the human glucose transporter GLUT1. Activity is measured by DNA content using SYBR green in vitro
Type: functional
Respond with the bare value in %.

Req: Please report the recorded inhibition for CN1CC=C(c2c[nH]c3ccc(Br)cc23)CC1 .
Resp: 1.93

---

Item-by-item account of inhibition
TEST_TARGET: Glucose transporter (Leishmania mexicana) (UniProt O61059)
ASSAY_TEXT: ST_JUDE_LEISH: Cytotoxicity at 2uM final concentration against transgenic Leishmania Mexicana promastigotes LmGT2 that are glucose transport deficient and complemented with the L. Mexicana glucose transporter 2. Activity is measured by DNA content using SYBR green in vitro
Assay type: functional
Respond with the bare value in %.

>  <COMPOUND>
O=C(NC1CCC(CN2CCC(c3c[nH]c4ccccc34)CC2)CC1)c1csc(-c2cccc(Cl)c2Cl)n1 (centres undefined)

>  <inhibition, %>
2.71

$$$$

Req: Please report the recorded inhibition for COCC(=O)N(Cc1ccccc1-c1ccc(CNCCc2ccccc2)cc1)C1CCN(Cc2ccccc2)CC1 .
Resp: -3.2

Req: Please report the recorded inhibition for CN(c1cc(NC(=O)c2ccc(F)cc2)ccn1)C1CCN(Cc2cccc(F)c2)CC1 .
Resp: 3.83

Req: Please report the recorded inhibition for Oc1ccc2[nH]cc(C3=CCN(Cc4ccccc4)CC3)c2c1 .
Resp: 10.4

Req: Please report the recorded inhibition for Cc1nc(C)c(-c2ccc(Oc3ccc(OC(F)(F)F)cc3)cc2)c(OC(=O)N(CCNC(C)C)C(C)C)c1Br .
Resp: 5.04

Req: Please report the recorded inhibition for CCCc1c(C(=O)NC2CCC(CN3CCC(c4c[nH]c5ccccc45)CC3)CC2)cnn1-c1c(Cl)cc(Cl)cc1Cl (centres undefined) .
Resp: 3.07

Req: Please report the recorded inhibition for COC(=O)c1ccc(CC(C)NCC(O)c2cccc(C(F)(F)F)c2)cc1C (centres undefined) .
Resp: 0.87

Req: Please report the recorded inhibition for O=C1Nc2cccc3c2C1(CCCCCN1CC=C(c2c[nH]c4ccccc24)CC1)CCC3 (centres undefined) .
Resp: 12.8

Req: Please report the recorded inhibition for CC[C@H]1CN2CC[C@H]1C[C@H]2[C@H](O)c1ccnc2ccc(O)cc12 .
Resp: 1.04

Req: Please report the recorded inhibition for CC[C@H]1CN2CCc3cc(OC)c(OC)cc3[C@@H]2C[C@@H]1C[C@H]1NCCc2c1cc(OC)c(OC)c2Br .
Resp: 84.7

Req: Please report the recorded inhibition for CCCCC/C=C/C(=O)NC1CCC(CN2CCC(c3c[nH]c4ccccc34)CC2)CC1 (centres undefined) .
Resp: 4.05

Req: Please report the recorded inhibition for CC(=O)Nc1ccc(OCCN(CC(C)C)c2ccc(C#N)c(C(F)(F)F)c2)c(Cl)c1 .
Resp: 2.53

---

Item-by-item account of inhibition
TEST_TARGET: Glucose transporter (Leishmania mexicana) (UniProt O61059)
ASSAY_TEXT: ST_JUDE_LEISH: Cytotoxicity at 2uM final concentration against transgenic Leishmania Mexicana promastigotes LmGT2 that are glucose transport deficient and complemented with the L. Mexicana glucose transporter 2. Activity is measured by DNA content using SYBR green in vitro
Assay type: functional
Respond with the bare value in %.

>  <MOLECULE>
CCCCCc1cc(O)c2c(c1)OC(C)(C)CC2C1=CCN(Cc2cccnc2)CC1 (stereo not given)

>  <MEASURED_RESULT>
0.25

$$$$
>  <MOLECULE>
OC(CNCc1ccccc1OC(F)F)c1cccc(C(F)(F)F)c1 (stereo not given)

>  <MEASURED_RESULT>
1.62

$$$$
>  <MOLECULE>
C[C@@H]1C[C@@H]([C@H](O)CC2CC(=O)NC(=O)C2)C(=O)[C@@H](C)C1

>  <MEASURED_RESULT>
88.7

$$$$
>  <MOLECULE>
S=C(Nc1ccccc1Cl)NC1CCC(CN2CCC(c3c[nH]c4ccccc34)CC2)CC1 (stereo not given)

>  <MEASURED_RESULT>
3.34

$$$$

Req: Please report the recorded inhibition for Cc1[nH]c2ccc(O)cc2c1C1CCN(CC2CCC(NC(=O)/C=C/c3c(Cl)cccc3Cl)CC2)CC1 (stereo not given) .
Resp: 3.62

Req: Please report the recorded inhibition for COC(=O)c1ccc(CC(C)NCC(O)c2cc(Cl)c(N)c(Cl)c2)cc1 (stereo not given) .
Resp: 2.16

Req: Please report the recorded inhibition for CC(Cc1ccc(OCCOc2ccccc2)cc1)NCC(O)c1cccc(Cl)c1 (stereo not given) .
Resp: 1.19

Req: Please report the recorded inhibition for C/C=C1\CN2CC[C@H]1C[C@@H]2[C@@H](O)c1ccnc2ccc(O)cc12 .
Resp: 2.5

Req: Please report the recorded inhibition for Cc1ccc(CC(C)NCC(O)c2cccc(Cl)c2)cc1F (stereo not given) .
Resp: 9.69

---

Item-by-item account of inhibition
TEST_TARGET: Solute carrier family 2, facilitated glucose transporter member 1 (Homo sapiens) (UniProt P11166)
ASSAY_TEXT: ST_JUDE_LEISH: Cytotoxicity at 2uM final concentration against transgenic Leishmania Mexicana promastigotes LmGLUT1 that are glucose transport deficient and complemented with the human glucose transporter GLUT1. Activity is measured by DNA content using SYBR green in vitro
Assay type: functional
Respond with the bare value in %.

>  <COMPOUND>
CC(Cc1ccc(-c2nc3ccccc3[nH]2)cc1)NCC(O)c1cccc(C(F)(F)F)c1 (stereo not given)

>  <inhibition / %>
1.35

$$$$

Req: Please report the recorded inhibition for O=C(Nc1ccc(Cl)c(Cl)c1)N1CCC(CN2CCC(c3c[nH]c4ccccc34)CC2)CC1 .
Resp: 6.13

Req: Please report the recorded inhibition for C=C[C@H]1CN2CC[C@H]1C[C@H]2[C@H](O)c1cc(-c2ccc(Cl)cc2)nc2ccc(OC)cc12 .
Resp: 1.16

Req: Please report the recorded inhibition for CCCCCCC(C)c1cc(O)c2c(c1)OC(C)(C)c1ccncc1-2 (stereo not given) .
Resp: 1.12

Req: Please report the recorded inhibition for CN1C(=O)[C@H](NC(=O)[C@@H](Cc2ccccc2)NC(=S)Nc2ccccc2)N=C(c2ccccc2)c2ccccc21 .
Resp: 1.25

---

TEST_TARGET: Solute carrier family 2, facilitated glucose transporter member 1 (Homo sapiens) (UniProt P11166)
ASSAY_TEXT: ST_JUDE_LEISH: Cytotoxicity at 2uM final concentration against transgenic Leishmania Mexicana promastigotes LmGLUT1 that are glucose transport deficient and complemented with the human glucose transporter GLUT1. Activity is measured by DNA content using SYBR green in vitro
Type: functional
MEASUREMENT_NAME: inhibition (%)
Respond with the bare value in %.

>  <COMPOUND>
CC(Cc1ccc(S(=O)(=O)N(C(C)C)C(C)C)cc1)NCC(O)c1cccc(C(F)(F)F)c1 (centres undefined)

>  <inhibition [%]>
-0.77

$$$$
>  <COMPOUND>
CCCCCCC(C)(C)c1cc(O)c2c3c(c(=O)oc2c1)CCN(Cc1ccccc1)C3

>  <inhibition [%]>
3.18

$$$$
>  <COMPOUND>
CN1CC=C(c2c[nH]c3ccc(Sc4ccccc4)cc23)CC1

>  <inhibition [%]>
1.74

$$$$
>  <COMPOUND>
Cc1cccc(C(=O)Nc2ccnc(N(C)C3CCN(Cc4cccc(O)c4)CC3)c2)c1

>  <inhibition [%]>
3.06

$$$$
>  <COMPOUND>
CC(C)CNCc1cccc(-c2ccc(CN(C(=O)NC3CCCCC3)C3CCN(Cc4ccccc4)CC3)cc2)c1

>  <inhibition [%]>
4.72

$$$$
>  <COMPOUND>
COC(=O)c1ccc(CC(C)NCC(O)c2cc(Cl)c(N)c(Cl)c2)cc1 (centres undefined)

>  <inhibition [%]>
1.96

$$$$
>  <COMPOUND>
COc1cc2c(c(OC)c1OC)C[C@H]1c3c(cc4c(c3-2)OCO4)CCN1C

>  <inhibition [%]>
-0.22

$$$$
>  <COMPOUND>
Cc1cc(N(C)C2CCN(C)CC2)nc(Nc2ccc(Br)cc2)n1

>  <inhibition [%]>
3.64

$$$$

Req: Please report the recorded inhibition for O=[N+]([O-])c1ccc(Oc2c(Cl)cc(S(=O)(=O)NC3CCC(CN4CCC(c5c[nH]c6ccccc56)CC4)CC3)cc2Cl)c(Cl)c1 (centres undefined) .
Resp: 2.41

Req: Please report the recorded inhibition for Cc1cc(-c2ncc[nH]2)ccc1-c1ccc(C(=O)N2CCc3cc4c(cc32)C2(CCN(C)CC2)CO4)cc1 .
Resp: -2.79

Req: Please report the recorded inhibition for CC(=O)C1(c2ccccc2)CCN(CCC2(c3ccc(Cl)c(Cl)c3)CN(C(=O)Nc3cc(F)cc(F)c3)CCO2)CC1 (centres undefined) .
Resp: 2.31

Req: Please report the recorded inhibition for C#CCN1CCC2=C(C1)c1c(O)cc(C(C)C(C)CCc3ccc(F)cc3)cc1OC2(C)C (centres undefined) .
Resp: 0.45

Req: Please report the recorded inhibition for Cc1[nH]c2ccccc2c1C1=CCN(CCCCCC23CCCc4cccc(c42)NC3=O)CC1 (centres undefined) .
Resp: 2.18
